Hello, the source for this data is PubChem BioAssay AID1117319, in case you need it.

# SYSTEM NAME: Virion infectivity factor (Human immunodeficiency virus type 1 group M subtype B (isolate BH10)) + Virion infectivity factor (Human immunodeficiency virus type 1 group M subtype B (isolate BRU/LAI)) + Virion infectivity factor (Human immunodeficiency virus type 1 group M subtype B (isolate PCV12)) + Virion infectivity factor (Human immunodeficiency virus type 1 group M subtype B (isolate HXB2)) + DNA dC->dU-editing enzyme APOBEC-3G (Homo sapiens) (UniProt P69720+P69721+P69722+P69723+Q9HC16)
# TEST METHOD NOTES: inhibitors of Vif binding to APOBEC3G peptide, primary screen, biochemical, TR-FRET, GST-Vif 1-94, biotin-A3G peptide, dose response retest (AID 1117319);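 further: Vif residues 1-94 fused to GST binding biotinylated APOBEC3G peptide 110-148; 0% = full assay without inhibitor and 100% = GST in place of GST-Vif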
# EXPERIMENTAL SETUP: active compounds read high
Screen size: about 260,000 compounds; about 1,500 (0.58%) were called active. Not shown: some 5% with an inconclusive outcome. A selection follows. Results with a measured potency or affinity are listed apart.
# reported inhibition; entries follow

COMPOUND: Cc1cc(NC(=O)CCCC(=O)NCc2cccs2)no1
inhibition [%]: 10.9
--
COMPOUND: Cn1nc(-c2ccccc2F)c2cc(C(=O)Nc3ccc4c(c3)OCCO4)sc21
inhibition [%]: -1.77
--
COMPOUND: CNC(=O)CC12CC3CC(CC(C3)C1)C2
inhibition [%]: 6.4
--
COMPOUND: CC(C)CN(C(=O)COC(=O)Cc1c[nH]c2ccccc12)C1CCS(=O)(=O)C1 (stereo unspecified)
inhibition [%]: -1.62
--
COMPOUND: Cc1ccc(CSCC(=O)NCc2ccc3c(c2)OCO3)cc1
inhibition [%]: 14.3
--
COMPOUND: CCN1CCC(=NNC(=O)c2ccco2)CC1
inhibition [%]: 5.57

---

# reported inhibition; entries follow
# SYSTEM NAME: Virion infectivity factor (Human immunodeficiency virus type 1 group M subtype B (isolate BH10)) + Virion infectivity factor (Human immunodeficiency virus type 1 group M subtype B (isolate BRU/LAI)) + Virion infectivity factor (Human immunodeficiency virus type 1 group M subtype B (isolate PCV12)) + Virion infectivity factor (Human immunodeficiency virus type 1 group M subtype B (isolate HXB2)) + DNA dC->dU-editing enzyme APOBEC-3G (Homo sapiens) (UniProt P69720+P69721+P69722+P69723+Q9HC16)
# TEST METHOD NOTES: inhibitors of Vif binding to APOBEC3G peptide, primary screen, biochemical, TR-FRET, GST-Vif 1-94, biotin-A3G peptide, dose response retest (AID 1117319);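 further: Vif residues 1-94 fused to GST binding biotinylated APOBEC3G peptide 110-148; 0% = full assay without inhibitor and 100% = GST in place of GST-Vif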
# EXPERIMENTAL SETUP: active compounds read high
The campaign covered roughly 260,000 compounds. About 1,500 (0.58%) were called active. Not shown: some 5% with an inconclusive outcome. The list is a sample of the results. Entries with a potency or affinity are not part of this list.

MOLECULE: Cc1cc(=O)n(C)c2ccccc12
UNIT NAME: %
inhibition: -5.08

MOLECULE: N=C1S/C(=C\c2cccc3ccccc23)C(=O)N1c1ccc(F)cc1
UNIT NAME: %
inhibition: -3.83

MOLECULE: COc1ccc2[nH]c(C)cc(=O)c2c1
UNIT NAME: %
inhibition: -0.89

MOLECULE: CC(=O)Nc1ccc(NC(=O)c2ccc(-c3ccc([N+](=O)[O-])cc3)o2)cc1
UNIT NAME: %
inhibition: -7.43

MOLECULE: COc1ccc(-c2cc(-c3n[nH]c(=S)n3-c3cccc4ccccc34)[nH]n2)cc1
UNIT NAME: %
inhibition: 32.6

MOLECULE: COc1cc(C2NC(=O)NC3=C2C(=O)OC3)cc(OC)c1OC (centres undefined)
UNIT NAME: %
inhibition: -6.88

MOLECULE: COc1ccc2c(OC)cc(=O)n(C)c2c1
UNIT NAME: %
inhibition: 6.19

MOLECULE: O=C(NNC(=O)c1cc2ccccc2o1)c1ccc(F)cc1
UNIT NAME: %
inhibition: -2.65

MOLECULE: COc1cccc(/C=C2\SC(=S)N(c3cccnc3)C2=O)c1OC
UNIT NAME: %
inhibition: -3.12

MOLECULE: CCCC(NC(=O)CCc1c(C)c2cc3c(-c4ccccc4)coc3cc2oc1=O)C(=O)O (centres undefined)
UNIT NAME: %
inhibition: -3.65

MOLECULE: COc1cc(NC(=O)c2ccc3c(SCC(=O)O)c4c(nc3c2)CCC4)cc(OC)c1OC
UNIT NAME: %
inhibition: 22.2

MOLECULE: Cc1nc(-c2ccc(S(=O)(=O)Nc3ccc(Br)cc3Cl)s2)cs1
UNIT NAME: %
inhibition: -10.4

MOLECULE: CC(/C=C1\SC(=S)N(CC(=O)N2CCN(c3ccccc3)CC2)C1=O)=C\c1ccccc1
UNIT NAME: %
inhibition: 25.6

MOLECULE: CC1=C(C(=O)OC2CCCCC2)C(c2cccs2)n2c(nc3ccccc32)N1 (centres undefined)
UNIT NAME: %
inhibition: -7.41

MOLECULE: CCOc1ccc(NC(=O)c2ccc3c(SCC(=O)O)c4c(nc3c2)CCCC4)cc1
UNIT NAME: %
inhibition: 2.98

MOLECULE: O=[N+]([O-])c1ccc(-c2ccc(/C=N/Nc3nc(N4CCCC4)nc(N4CCCC4)n3)o2)cc1
UNIT NAME: %
inhibition: -1.43

MOLECULE: COc1cccc(CN2C(=O)CN(C3CCCCC3)C(=O)C2c2ccc(F)cc2)c1 (centres undefined)
UNIT NAME: %
inhibition: 1.82

MOLECULE: O=C(C1=C[C@H](c2ccc(Br)cc2)C[C@H](OCc2ccc(CO)cc2)O1)N1CCOCC1
UNIT NAME: %
inhibition: 15.5

MOLECULE: O=[N+]([O-])c1ccc(/C=N/Nc2nc(N3CCCCCC3)nc(N3CCCCCC3)n2)o1
UNIT NAME: %
inhibition: 10.1

MOLECULE: Cc1ccc2c(c1)c1c(n2C)C(=O)CCC1
UNIT NAME: %
inhibition: -2

MOLECULE: O=C(O)CN1C(=O)/C(=C\C(Br)=C\c2ccccc2)SC1=S
UNIT NAME: %
inhibition: 8.8

MOLECULE: CCOC(=O)c1csc(NC(=O)c2cc3ccccc3o2)n1
UNIT NAME: %
inhibition: 0.78

MOLECULE: C=CCNC(=O)c1ccc(-c2ccc([N+](=O)[O-])cc2)o1
UNIT NAME: %
inhibition: 16.1

MOLECULE: CCOc1cc(N2CCOCC2)c(OCC)cc1NC(=O)C(C)(C)C
UNIT NAME: %
inhibition: 31

MOLECULE: O=C(NNC(=O)c1ccccc1C(=O)O)c1cc2ccccc2o1
UNIT NAME: %
inhibition: 19

MOLECULE: CCOc1cc(N2CCOCC2)c(OCC)cc1NC(=O)CSc1nc(N)cc(=O)[nH]1
UNIT NAME: %
inhibition: -6.18

MOLECULE: Cc1ccc(N2C(=O)/C(=C/c3ccco3)SC2=S)cc1
UNIT NAME: %
inhibition: -7.25

MOLECULE: OC(CNCCNc1ncccc1C(F)(F)F)Cn1ccc2ccccc21 (centres undefined)
UNIT NAME: %
inhibition: 4.3

MOLECULE: CCOC(=O)n1c(=O)oc2cc(S(=O)(=O)N3CCOCC3)ccc21
UNIT NAME: %
inhibition: 9.96

MOLECULE: CCN(CC(=O)Nc1c(F)cccc1F)C(=O)c1ccc2c(c1)S(=O)(=O)N=C1CCCCCN12
UNIT NAME: %
inhibition: -6.51

MOLECULE: Cc1ccc(C)c2c1c1ccccc1n2C
UNIT NAME: %
inhibition: -3.59

MOLECULE: COCCNC(=O)C1(C)Oc2ccccc2NC1=O (centres undefined)
UNIT NAME: %
inhibition: 1.83

MOLECULE: Cc1csc(NC(=O)c2cc3ccccc3o2)n1
UNIT NAME: %
inhibition: 0.57

MOLECULE: COc1cc(/C=C2\SC(=N)N(c3ccc4c(c3)OCO4)C2=O)cc(OC)c1O
UNIT NAME: %
inhibition: 2.68

MOLECULE: COc1ccc(CCN2C(=O)/C(=C\c3ccco3)SC2=S)cc1OC
UNIT NAME: %
inhibition: 0.31

MOLECULE: Cc1ccccc1-n1c(-c2ccc(Cl)cc2)cnc1SCC(=O)NC1CCS(=O)(=O)C1 (centres undefined)
UNIT NAME: %
inhibition: -0.29

MOLECULE: COc1ccc2[nH]c3ccccc3c2c1
UNIT NAME: %
inhibition: 1.16

MOLECULE: CCN(CC)CCCNC(=O)c1ccc2c(SCC(=O)O)c3c(nc2c1)CCC3
UNIT NAME: %
inhibition: 27.5

MOLECULE: Cc1ccc(S(=O)(=O)N2C[C@H]3[C@H]4C(=O)N(c5ccccc5)C(=O)[C@H]4C[C@H](OC(=O)NC4CCCC4)[C@@]3(O)C2)cc1
UNIT NAME: %
inhibition: -0.48

MOLECULE: COc1ccc2c(c1)c1ccccc1n2C
UNIT NAME: %
inhibition: 1.57

MOLECULE: COc1cccc(NC(=O)CN(C)C(=O)c2cc(-c3cccc(Br)c3)nc3ccccc23)c1
UNIT NAME: %
inhibition: 4.76

MOLECULE: Cn1cc(C(=O)Nc2ccc(Cl)cc2)c(C(F)(F)F)n1
UNIT NAME: %
inhibition: -6.34

MOLECULE: CCOc1cc(N2CCOCC2)c(OCC)cc1NC(=O)CSc1ncccn1
UNIT NAME: %
inhibition: -9.38

MOLECULE: CCOc1cc(N2CCOCC2)c(OCC)cc1NC(=O)C(C)C
UNIT NAME: %
inhibition: 32.2
